Biological target: UniProtKB Q01064
Sequence (Q01064 whole entry): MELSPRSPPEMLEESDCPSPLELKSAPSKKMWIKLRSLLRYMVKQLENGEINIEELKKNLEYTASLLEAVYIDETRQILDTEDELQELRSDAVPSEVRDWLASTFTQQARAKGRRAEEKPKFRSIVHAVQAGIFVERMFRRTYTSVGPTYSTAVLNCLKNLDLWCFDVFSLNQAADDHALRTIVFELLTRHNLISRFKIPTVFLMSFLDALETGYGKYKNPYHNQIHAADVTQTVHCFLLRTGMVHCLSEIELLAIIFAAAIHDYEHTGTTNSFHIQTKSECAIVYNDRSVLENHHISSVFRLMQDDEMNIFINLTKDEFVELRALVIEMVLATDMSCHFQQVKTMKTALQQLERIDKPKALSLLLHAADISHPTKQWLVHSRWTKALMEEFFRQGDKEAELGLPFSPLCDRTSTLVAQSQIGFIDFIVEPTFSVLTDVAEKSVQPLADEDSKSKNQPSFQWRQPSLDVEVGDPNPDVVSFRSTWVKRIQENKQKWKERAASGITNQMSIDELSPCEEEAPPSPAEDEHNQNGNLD
Assay: PDE1 inhibition assay (SPA), PDE1B
Assay type: biochemical
Conditions: 1 h, % inhibition of the enzyme at a concentration of 10 micro molar of the compound; read-out: PDE1B inhibition (nM or %): % inhib
Experimental: PDE1 Inhibition Assay PDE1A, PDE1B and PDE1C assays were performed as follows: the assays were performed in 60 μL samples containing a fixed amount of the PDE1 enzym1 (sufficient to convert 20-25% of the cyclic nucleotide substrate), a buffer (50 mM HEPES pH 7.6; 10 mM MgCl2; 0.02% Tween20), 0.1 mg/ml BSA, 15 nM tritium labelled cAMP and varying amounts of inhibitors. […] The beads were allowed to settle for 1 h in the dark before the plates were counted in a Wallac 1450 Microbeta counter. […]
// reported inhibition at 10 µM per item

# count of solved cases: 7
compound	targetDesc	inhibition at 10 µM
CCCc1nnc2c(=O)n(CC3COC3)ccn12	UniProtKB Q01064	46%
CCCc1nnc2c(=O)n(Cc3ccccc3C)ccn12	UniProtKB Q01064	42%
CCCc1nnc2c(=O)n(Cc3ccccc3C(F)(F)F)ccn12	UniProtKB Q01064	46%
CCCc1nnc2c(=O)n(CC)ccn12	UniProtKB Q01064	71%
CCCc1nnc2c(=O)n(CC3CCOC3)ccn12 (single isomer, unassigned)	UniProtKB Q01064	67%
CCCc1nnc2c(=O)n(CC3CCOCC3)ccn12	UniProtKB Q01064	47%
CC(C)CCn1ccn2c(C3CCOCC3)nnc2c1=O	UniProtKB Q01064	55%

Next up:
Look up inhibition at 10 µM for this compound: O=c1c2nnc(CC3CCCO3)n2ccn1Cc1cccc(F)c1 (single isomer, unassigned)
67%

###

// reported IC50 per item
Target: PDE1C (Homo sapiens, UniProt Q14123)
Sequence (Q14123 whole entry): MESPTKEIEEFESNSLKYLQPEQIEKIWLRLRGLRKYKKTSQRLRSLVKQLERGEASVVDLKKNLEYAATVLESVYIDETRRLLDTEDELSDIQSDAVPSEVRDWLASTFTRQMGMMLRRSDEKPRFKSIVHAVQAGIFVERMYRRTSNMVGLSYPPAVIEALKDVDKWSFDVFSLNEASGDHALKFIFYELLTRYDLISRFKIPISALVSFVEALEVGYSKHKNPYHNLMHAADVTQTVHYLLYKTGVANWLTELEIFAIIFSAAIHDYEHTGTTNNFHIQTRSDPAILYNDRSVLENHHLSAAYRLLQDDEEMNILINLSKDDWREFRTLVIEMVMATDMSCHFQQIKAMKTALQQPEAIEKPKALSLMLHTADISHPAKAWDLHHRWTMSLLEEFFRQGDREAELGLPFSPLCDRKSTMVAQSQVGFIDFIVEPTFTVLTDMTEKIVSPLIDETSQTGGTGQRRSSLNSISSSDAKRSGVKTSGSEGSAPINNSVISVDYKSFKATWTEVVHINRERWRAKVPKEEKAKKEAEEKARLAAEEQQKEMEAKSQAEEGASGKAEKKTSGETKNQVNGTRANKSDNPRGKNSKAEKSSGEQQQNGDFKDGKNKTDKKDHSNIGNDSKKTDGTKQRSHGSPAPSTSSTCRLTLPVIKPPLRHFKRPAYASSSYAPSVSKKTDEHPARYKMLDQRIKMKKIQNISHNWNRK
Test: PDE1 inhibition assay (SPA), PDE1C
Assay type: biochemical
Conditions: concentration required to reach 50% inhibition of the enzyme; 15 nM tritium labelled cAMP; read-out: PDE1C inhibition (nM or %): IC50
Kindly answer with a numeric value in nM, unit omitted.

molecule	readingUnit	IC50
CCCc1nnc2c(=O)n(CC3C4CC5CC(C4)CC3C5)ccn12 (stereo not shown)	nM	63

Look up IC50 for this molecule: "O=c1c2nnc(C3CCOCC3)n2cc(Cc2cccc(F)c2)n1Cc1cccc(F)c1"
8

Look up IC50 for this molecule: "CCCc1nnc2c(=O)n(Cc3cccc(F)c3)cc(CC)n12"
180

###

// reported IC50 per item
Biological target: UniProt:Q01064
Experiment: PDE1 inhibition assay (SPA), PDE1B
Format: biochemical
Settings: concentration required to reach 50% inhibition of the enzyme; 15 nM tritium labelled cAMP; read-out: PDE1B inhibition (nM or %): IC50

# count of solved cases: 5
compound	IC50
CCCc1nnc2c(=O)n(Cc3cccc(F)c3)c(C)cn12	190 nM
O=c1c2nnc(C3CCOCC3)n2ccn1CC1CCCC1	990 nM
O=c1c2nnc([C@H]3CC[C@@H](O)CC3)n2ccn1Cc1cccc(F)c1	1000 nM
CCCc1nnc2c(=O)n(Cc3ccc(C)cc3)ccn12	930 nM
CCCc1nnc2c(=O)n(Cc3ccc(Cl)cc3)ccn12	83 nM

Look up IC50 for this compound: "CCCc1nnc2c(=O)n(CC3CCCCC3)ccn12"
81 nM

Look up IC50 for this compound: "CCCc1nnc2c(=O)n(CC3CCC4(CC3)CC4)ccn12"
53 nM

All values here come from patent US10150771B2.
